# SUBJECT_OF_TEST: androgen receptor (AR) (Homo sapiens, UniProt P10275, T878A)
# Construct: endogenous in cells
# Sequence (P10275 whole entry T878A): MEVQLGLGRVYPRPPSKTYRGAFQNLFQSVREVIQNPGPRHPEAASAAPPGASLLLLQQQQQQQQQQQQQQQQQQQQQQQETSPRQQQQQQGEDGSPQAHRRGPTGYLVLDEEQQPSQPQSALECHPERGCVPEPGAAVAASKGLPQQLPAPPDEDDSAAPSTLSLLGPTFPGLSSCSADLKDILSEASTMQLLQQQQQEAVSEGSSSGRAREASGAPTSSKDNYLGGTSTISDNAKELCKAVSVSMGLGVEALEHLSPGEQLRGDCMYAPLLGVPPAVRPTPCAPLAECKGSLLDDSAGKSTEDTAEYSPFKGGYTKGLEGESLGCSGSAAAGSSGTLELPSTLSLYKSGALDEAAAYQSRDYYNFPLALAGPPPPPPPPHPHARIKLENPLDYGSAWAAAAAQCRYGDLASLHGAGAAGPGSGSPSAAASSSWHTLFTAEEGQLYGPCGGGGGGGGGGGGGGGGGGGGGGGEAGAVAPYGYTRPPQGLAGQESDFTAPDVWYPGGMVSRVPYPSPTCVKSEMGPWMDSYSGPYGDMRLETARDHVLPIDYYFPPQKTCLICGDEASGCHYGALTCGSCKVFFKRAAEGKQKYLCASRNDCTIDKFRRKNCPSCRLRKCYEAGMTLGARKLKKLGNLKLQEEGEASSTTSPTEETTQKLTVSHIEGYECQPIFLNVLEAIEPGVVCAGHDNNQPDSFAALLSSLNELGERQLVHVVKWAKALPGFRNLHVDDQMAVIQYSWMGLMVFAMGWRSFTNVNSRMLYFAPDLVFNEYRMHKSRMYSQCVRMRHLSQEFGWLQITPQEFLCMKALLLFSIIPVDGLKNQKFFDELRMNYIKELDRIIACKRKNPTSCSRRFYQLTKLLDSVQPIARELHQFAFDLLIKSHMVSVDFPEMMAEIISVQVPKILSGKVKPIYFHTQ
# PROTOCOL_NOTES: Androgen-induced PSA-luciferase assay, Luciferase Assay A (LNCaP transiently transfected with PSA (6.1 kb)-luciferase reporter)
# MEASUREMENT_CONDITIONS: LNCaP cells, 1 h pretreatment, R1881 (1 nM) 24 h, read-out: PSA-Luc IC50 Range
pIC50: −log10 of the molar value.
Task for the reader: assign each of the following compounds its reported pIC50.

CC(C)(c1ccc(OCc2ccnc(NS(C)(=O)=O)n2)cc1)c1cc(Cl)c(OCc2cnccn2)c(C#N)c1: < 5.70

Please give pIC50, item by item, for the list that follows.
1. CN(c1ccc(-c2ccc3nc(NS(C)(=O)=O)cnc3c2)cc1)c1cc(Cl)c(OCCCl)c(C#N)c1
2. CS(=O)(=O)Nc1cnc2cc(C3CCN(Cc4cc(Cl)c(OCCCl)c(C#N)c4)CC3)ccc2n1

Given back:
1: > 6.30; 2: < 5.70

Required: pIC50, one value per compound below.
1. CC(C)(c1ccc(OC[C@H]2C[C@@H](CNS(C)(=O)=O)C2)cc1)c1cc(Cl)c(OCCCl)c(C#N)c1
2. CS(=O)(=O)Nc1nccc2cc(-c3ccc(Oc4cc(Cl)c(OCCCl)c(C#N)c4)cc3)ccc12
3. CS(=O)(=O)Nc1cnc2cc(-c3ccc(Oc4cc(Cl)c(N5CCOCC5)c(C#N)c4)cc3)ccc2n1

Given back:
["5.70 to 6.30", "< 5.70", "5.70 to 6.30"]

Asked: State measured pIC50 of the compound `CS(=O)(=O)N1CCc2cc(-c3ccc(Oc4cc(Cl)c(OCCCl)c(C#N)c4)cc3)ccc2C1` with androgen receptor (AR) (Homo sapiens, UniProt P10275, T878A).
Given back: < 5.70

###

# PROTOCOL_NOTES: Microsomal stability assay, liver microsome half-life (rat)
# Assay type: in vitro ADME
# MEASUREMENT_CONDITIONS: pH 7.4; rat liver microsomes 0.5 mg/mL + NADPH, 1 μM compound, 37° C; read-out: Liver microsome + NADPH T½ (min) Rat
READOUT_TYPE: half-life at 1 μM

CC(C)(c1ccc(-c2cnn([C@H]3C[C@H](NS(C)(=O)=O)C3)c2)cc1)c1cc(Cl)c(OCCCl)c(C#N)c1: 112 min

Okay, here is my list. What is half-life at 1 μM for each of these?
1. CS(=O)(=O)Nc1nccc(COc2ccc(N(CC(F)(F)F)c3cc(Cl)c(OC4CC4)c(C#N)c3)cc2)n1
2. CS(=O)(=O)Nc1cnc2cc(-c3ccc(N(CC(F)(F)F)c4cc(Cl)c(OC5CC5)c(C#N)c4)cc3)ccc2n1

Given back:
["> 120 min", "> 120 min"]

Items follow; give half-life at 1 μM for each.
1. CS(=O)(=O)Nc1cnc2cc(-c3ccc(N(c4cc(Cl)c(OCCCl)c(C#N)c4)C4CC4)cc3)ccc2n1
2. CS(=O)(=O)Nc1cnc2cc(-c3ccc(Oc4cc(C#N)c(OC5CC5)c(C(F)(F)F)c4)cc3)ccc2n1
3. CN(c1ccc(-c2ccc3nc(NS(C)(=O)=O)cnc3c2)cc1)c1cc(F)c(OC2CC2)c(C#N)c1
4. CS(=O)(=O)NC1CN(c2cnc(-c3ccc(Oc4cc(Cl)c(OCCCl)c(C#N)c4)cc3)cn2)C1

Given back:
> 120 min
> 120 min
> 120 min
> 120 min

###

# SUBJECT_OF_TEST: androgen receptor (AR) (Homo sapiens, UniProt P10275, T878A)
# Construct: endogenous in cells
# PROTOCOL_NOTES: Androgen-induced PSA-luciferase assay, Luciferase Assay A (LNCaP transiently transfected with PSA (6.1 kb)-luciferase reporter)
# MEASUREMENT_CONDITIONS: LNCaP cells, 1 h pretreatment, R1881 (1 nM) 24 h, read-out: PSA-Luc IC50 Range
READOUT_TYPE: IC50

Past entries and their recorded results:
CC(C)(c1ccc(-c2ccc(CNS(C)(=O)=O)cn2)cc1)c1cc(Cl)c(OCCCl)c(C#N)c1 [Compound A3]: 500 to 2000 nM
CS(=O)(=O)NC1CN(c2cnc(-c3ccc(Oc4cc(Cl)c(OCCCl)c(C#N)c4)cc3)cn2)C1 [Compound A94]: 500 to 2000 nM
CC(C)(c1ccc(-c2ccc(N3CC(NS(C)(=O)=O)C3)nn2)cc1)c1cc(Cl)c(OCCCl)c(C#N)c1 [Compound A69]: 500 to 2000 nM
CC(C)(c1ccc(-n2cc(N3CC(NS(C)(=O)=O)C3)cn2)cc1)c1cc(Cl)c(OCCCl)c(C#N)c1 [Compound A45]: 500 to 2000 nM
CC(C)(c1ccc(-c2ccc(N3CCC(NS(C)(=O)=O)CC3)nc2)cc1)c1cc(Cl)c(OCCCl)c(C#N)c1 [Compound A58]: > 2000 nM

For each of the compounds below, state IC50.
1. COc1c(Cl)cc(N(CC(F)(F)F)c2ccc(-c3ccc4nc(NS(C)(=O)=O)cnc4c3)cc2)cc1C#N [Compound A67]
2. CS(=O)(=O)NC1CN(c2ncc(-c3ccc(Oc4cc(Cl)c(OCCCl)c(C#N)c4)cc3)cn2)C1 [Compound A70]

Given back:
["500 to 2000 nM", "> 2000 nM"]

###

# SUBJECT_OF_TEST: androgen receptor (AR) (Homo sapiens, UniProt P10275, T878A)
# Construct: endogenous in cells
# PROTOCOL_NOTES: Androgen-induced PSA-luciferase assay, Luciferase Assay A (LNCaP transiently transfected with PSA (6.1 kb)-luciferase reporter)
# MEASUREMENT_CONDITIONS: LNCaP cells, 1 h pretreatment, R1881 (1 nM) 24 h, read-out: PSA-Luc IC50 Range
# Description: The PSA (6.1 kb)-luciferase reporter contains functional AREs (androgen response elements) to which AR binds in response to androgen to induce luciferase activity. […] After 24 h of incubation with R1881, the cells were harvested, and relative luciferase activities were determined (FIG. 1). […]
pIC50: −log10 of the molar value.
READOUT_TYPE: pIC50

Here are 2 molecules together with their reported answers.
CC(C)(c1ccc(OCC23CC(NS(C)(=O)=O)(C2)C3)cc1)c1cc(Cl)c(OC2CC2)c(C#N)c1 [Compound A143]: 5.70 to 6.30
CC(C)(c1ccc(OC2CC3(CC(NS(C)(=O)=O)C3)C2)cc1)c1cc(Cl)c(OCCCl)c(C#N)c1 (stereo not shown) [Compound A150]: 5.70 to 6.30

Here are 2 molecules. What values of pIC50 were reported for them?
1. CC(C)(c1ccc(-c2ccc(N3CC(CNS(C)(=O)=O)C3)nc2)cc1)c1cc(Cl)c(OCCCl)c(C#N)c1 [Compound A55]
2. CC(C)(c1ccc(-c2ccc(CCNS(C)(=O)=O)nc2)cc1)c1cc(Cl)c(OCCCl)c(C#N)c1 [Compound A6]

Given back:
["> 6.30", "> 6.30"]

###

# SUBJECT_OF_TEST: androgen receptor (AR) (Homo sapiens, UniProt P10275)
# Sequence (P10275 whole entry T878A, form open): as the sequence (P10275 whole entry T878A) above
# PROTOCOL_NOTES: Androgen-induced PSA-luciferase assay, Luciferase Assay B (cells stably expressing ARR2PB or PSA-firefly luciferase reporter, 384-well)
# MEASUREMENT_CONDITIONS: Luciferase Assay B (Compounds A186-A219 and A221-A245); stable luciferase reporter cells, 1 h pretreatment, R1881 24 h, serum-free; read-out: PSA-Luc IC50 Range
READOUT_TYPE: IC50

Study these solved cases before continuing.
CN(c1cnc2cc(-c3ccc(Oc4cc(Cl)c(OC5CC5)c(C#N)c4)cc3)ccc2n1)S(C)(=O)=O: 500 to 2000 nM
CS(=O)(=O)Nc1cnc2cc(-c3ccc(N(CC(F)F)c4cc(Cl)c(OC5CC5)c(C#N)c4)cc3)ccc2n1: < 500 nM
CS(=O)(=O)Nc1cnc2cc(-c3ccc(N(CC(F)(F)F)c4cc(Cl)c(N5CCOCC5)c(C#N)c4)cc3)ccc2n1: < 500 nM
CS(=O)(=O)Nc1cc2cnn(Cc3ccc(Oc4cc(Cl)c(OC5CC5)c(C#N)c4)cc3)c2cn1: 500 to 2000 nM
CS(=O)(=O)Nc1cnc2cc(-c3ccc(Oc4cnc(OC5CC5)c(C#N)c4)cc3)ccc2n1: > 2000 nM
CS(=O)(=O)NC12CC(COc3ccc(N(CC(F)(F)F)c4cc(Cl)c(OC5CC5)c(C#N)c4)cc3)(C1)C2: < 500 nM

Record IC50 for all entries; do not skip any.
1. CCCOc1c(Cl)cc(Oc2ccc(-c3ccc4nc(NS(C)(=O)=O)cnc4c3)cc2)cc1C#N
2. N#Cc1cc(Oc2ccc(-c3ccc4nc(N5CCNCC5)cnc4c3)cc2)cc(Cl)c1OC1CC1
3. CS(=O)(=O)Nc1nccc(COc2ccc(N(CC(F)(F)F)c3cc(Cl)c(OC4CC4)c(C#N)c3)cc2)n1

Given back:
1. 500 to 2000 nM
2. > 2000 nM
3. < 500 nM

Kindly give each listed record's IC50.
1. CC(C)(c1ccc(OCc2ccnc(N3CCNCC3)n2)cc1)c1cc(Cl)c(OC2CC2)c(C#N)c1
2. CS(=O)(=O)NC12CC(COc3ccc(Oc4cc(Cl)c(OC5CC5)c(C#N)c4)cc3)(C1)C2
3. CS(=O)(=O)Nc1ccc2nc(-c3ccc(Oc4cc(Cl)c(OC5CC5)c(C#N)c4)cc3)cnc2n1
4. N#Cc1cc(Oc2ccc(-c3ccc4nc(N5CC(O)C5)cnc4c3)cc2)cc(Cl)c1OC1CC1
5. CC(=O)N1CCN(c2cnc3cc(-c4ccc(Oc5cc(Cl)c(OC6CC6)c(C#N)c5)cc4)ccc3n2)CC1

Given back:
["500 to 2000 nM", "> 2000 nM", "500 to 2000 nM", "500 to 2000 nM", "500 to 2000 nM"]

Hi, could you look up IC50 for each item in my list?
1. N#Cc1cc(Oc2ccc(-c3ccc4nc(NC5CCS(=O)(=O)CC5)cnc4c3)cc2)cc(Cl)c1OC1CC1
2. Cn1nc(NS(C)(=O)=O)c2cc(-c3ccc(Oc4cc(Cl)c(OC5CC5)c(C#N)c4)cc3)ccc21
3. CNc1cnc2cc(-c3ccc(Oc4cc(Cl)c(OC5CC5)c(C#N)c4)cc3)ccc2n1
4. Cn1nc(NS(C)(=O)=O)c2ccc(-c3ccc(Oc4cc(Cl)c(OC5CC5)c(C#N)c4)cc3)cc21

Given back:
500 to 2000 nM
500 to 2000 nM
> 2000 nM
> 2000 nM
